These entries and their values trace back to patent US20230295152A1.

# target-system: hERG channels (Homo sapiens, UniProt Q12809)
# Construct: host or cells: HEK 293
# Sequence (Q12809 whole entry): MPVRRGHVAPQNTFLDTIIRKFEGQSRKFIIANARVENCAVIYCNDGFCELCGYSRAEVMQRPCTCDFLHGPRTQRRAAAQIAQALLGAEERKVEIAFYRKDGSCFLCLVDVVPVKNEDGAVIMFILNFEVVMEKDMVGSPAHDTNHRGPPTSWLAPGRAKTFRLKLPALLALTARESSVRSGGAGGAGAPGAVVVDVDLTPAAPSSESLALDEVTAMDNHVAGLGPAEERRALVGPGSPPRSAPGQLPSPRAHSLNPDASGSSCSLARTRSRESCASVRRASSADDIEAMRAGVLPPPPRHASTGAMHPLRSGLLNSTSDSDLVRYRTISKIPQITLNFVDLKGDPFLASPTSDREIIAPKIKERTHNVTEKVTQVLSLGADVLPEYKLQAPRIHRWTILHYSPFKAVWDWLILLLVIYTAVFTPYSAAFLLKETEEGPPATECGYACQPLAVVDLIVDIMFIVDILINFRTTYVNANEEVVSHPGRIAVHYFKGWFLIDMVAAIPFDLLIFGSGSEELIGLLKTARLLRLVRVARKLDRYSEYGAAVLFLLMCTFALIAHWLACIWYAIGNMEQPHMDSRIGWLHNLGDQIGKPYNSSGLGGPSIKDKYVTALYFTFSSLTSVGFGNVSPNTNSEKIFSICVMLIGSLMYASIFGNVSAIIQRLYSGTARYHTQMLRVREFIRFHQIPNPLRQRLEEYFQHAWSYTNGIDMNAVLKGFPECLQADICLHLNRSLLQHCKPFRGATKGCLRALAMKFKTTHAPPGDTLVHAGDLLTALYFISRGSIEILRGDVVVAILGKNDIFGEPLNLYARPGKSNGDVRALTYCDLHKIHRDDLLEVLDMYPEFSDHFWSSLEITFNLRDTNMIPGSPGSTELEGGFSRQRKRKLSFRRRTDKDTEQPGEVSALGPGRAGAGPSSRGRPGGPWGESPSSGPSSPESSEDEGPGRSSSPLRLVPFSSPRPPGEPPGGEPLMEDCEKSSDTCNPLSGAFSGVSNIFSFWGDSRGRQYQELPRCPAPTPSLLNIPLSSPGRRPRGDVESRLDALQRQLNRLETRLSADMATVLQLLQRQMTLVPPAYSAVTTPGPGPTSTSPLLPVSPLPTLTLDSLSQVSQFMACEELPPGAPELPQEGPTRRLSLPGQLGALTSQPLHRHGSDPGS
# method: hERG Inhibition Assay, patch clamp in hERG stably expressed HEK 293 cell line
# Assay type: cell-based
# particulars: read-out: hERG channel: IC50
pIC50: −log10 of the molar value.

- compound-string: "CC(C)(O)Cn1cnc2c(-c3cccnc3)nc(-c3ccc(C(F)(F)F)cc3)cc2c1=O"
  comparator: "="
  pIC50: 5.37
- compound-string: "CC(C)(O)Cn1cnc2c(-c3cccnc3)nc(-c3ccc(C(F)(F)F)cn3)cc2c1=O"
  comparator: "="
  pIC50: 4.93
- compound-string: "CC(C)(O)Cn1cnc2c(-c3cccnc3)nc(-c3ccc(Cl)cc3)cc2c1=O"
  comparator: "="
  pIC50: 5.28
- compound-string: "C[C@@H](CO)n1cnc2c(-c3cccc(F)c3)nc(-c3ccc(Cl)cc3)cc2c1=O"
  comparator: "<"
  pIC50: 4.52
- compound-string: "Cn1cc(-c2nc(-c3ccc(C(F)(F)F)cn3)cc3c(=O)n(CC(C)(C)O)cnc23)cn1"
  comparator: "<"
  pIC50: 5.00
- compound-string: "O=c1c2cc(-c3ccc(Cl)cc3)nc(-c3cccnc3)c2ncn1[C@H]1COC[C@@H]1O"
  comparator: "="
  pIC50: 5.12
- compound-string: "C[C@H](n1cnc2c(-c3cnn(C)c3)nc(-c3ccc(Cl)cc3)cc2c1=O)C(C)(C)O"
  comparator: "<"
  pIC50: 4.52
- compound-string: "Cn1cc(-c2nc(-c3ccc(C(F)(F)F)nc3)cc3c(=O)n(CC(C)(C)O)cnc23)cn1"
  comparator: "<"
  pIC50: 4.52

* * *

# target-system: AHR (Homo sapiens, UniProt P35869)
# Construct: other cell line with a DRE-luciferase reporter stably transfected; endogenous in cells
# Sequence (P35869 11-848): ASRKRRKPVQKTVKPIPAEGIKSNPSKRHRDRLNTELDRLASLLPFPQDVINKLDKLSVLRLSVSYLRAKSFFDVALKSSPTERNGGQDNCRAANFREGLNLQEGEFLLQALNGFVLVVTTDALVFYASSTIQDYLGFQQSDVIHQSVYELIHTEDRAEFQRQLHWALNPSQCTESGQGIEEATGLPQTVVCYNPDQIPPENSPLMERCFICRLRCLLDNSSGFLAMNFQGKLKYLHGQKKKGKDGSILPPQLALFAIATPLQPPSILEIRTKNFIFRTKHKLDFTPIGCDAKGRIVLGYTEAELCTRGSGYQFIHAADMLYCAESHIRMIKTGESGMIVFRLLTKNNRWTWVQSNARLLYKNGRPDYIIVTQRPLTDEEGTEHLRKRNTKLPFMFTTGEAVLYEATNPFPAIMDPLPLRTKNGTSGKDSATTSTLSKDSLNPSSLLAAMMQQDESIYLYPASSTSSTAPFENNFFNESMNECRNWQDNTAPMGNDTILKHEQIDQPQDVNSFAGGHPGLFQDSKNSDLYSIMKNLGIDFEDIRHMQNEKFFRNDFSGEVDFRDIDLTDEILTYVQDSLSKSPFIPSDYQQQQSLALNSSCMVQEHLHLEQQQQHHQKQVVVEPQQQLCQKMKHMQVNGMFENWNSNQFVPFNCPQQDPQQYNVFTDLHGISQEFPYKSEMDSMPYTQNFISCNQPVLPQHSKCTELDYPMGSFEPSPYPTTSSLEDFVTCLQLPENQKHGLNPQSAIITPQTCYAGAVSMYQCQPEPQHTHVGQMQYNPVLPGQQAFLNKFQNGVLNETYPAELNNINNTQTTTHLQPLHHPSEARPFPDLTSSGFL
# method: DRE-Luciferase Reporter Assay, HepG2 AhR-Lucia reporter cells
# particulars: with AHR activating ligand at EC50, read-out: HepG2-Luc IC50
pIC50: −log10 of the molar value.
Entries and their pIC50 values follow.

- compound: "O=c1c2cc(-c3ccc(C(F)(F)F)cn3)nc(-c3cccnc3)c2ncn1[C@@H]1COC[C@H]1O [Compound 140]"
  pIC50: "> 7.00"
- compound: "CC(C)(O)Cn1cnc2c(-c3cn[nH]c3)nc(-c3ccc(C(F)(F)F)nc3)cc2c1=O [Compound 51]"
  pIC50: "> 7.00"
- compound: "CNC(=O)[C@H](C)n1cnc2c(-c3cccnc3)nc(-c3ccc(C(F)(F)F)nc3)cc2c1=O [Compound 156]"
  pIC50: "> 7.00"
- compound: "Cn1cnc2c(-c3cccnc3)nc(-c3ccc(OC(F)(F)F)cc3)cc2c1=O [Compound 28]"
  pIC50: "> 7.00"
- compound: "O=c1c2cc(-c3ccc(C(F)(F)F)cn3)nc(-c3cccnc3)c2ncn1[C@@H]1COC[C@@H]1O [Compound 148]"
  pIC50: "> 7.00"
- compound: "CC(C)[C@@H](CO)n1cnc2c(-c3cccc(F)c3)nc(-c3ccc(Cl)cc3)cc2c1=O [Compound 90]"
  pIC50: "> 7.00"
- compound: "CC(C)(O)Cn1cnc2c(-c3cccnc3)nc(-c3cccnc3)cc2c1=O [Compound 59]"
  pIC50: "< 6.30"
- compound: "O=c1c2cc(-c3ccc(OC(F)(F)F)cc3)nc(-c3cccnc3)c2ncn1CC(O)C(F)(F)F (stereo not shown) [Compound 14]"
  pIC50: "> 7.00"
- compound: "O=c1c2cc(-c3ccc(OC(F)(F)F)cc3)nc(-c3cccnc3)c2ncn1C[C@H](O)C(F)(F)F [Compound 124]"
  pIC50: "> 7.00"
- compound: "C[C@@H](CO)n1cnc2c(-c3cccnc3)nc(N3CCCCC3)cc2c1=O [Compound 100]"
  pIC50: "< 6.30"
- compound: "CC(C)c1ncc(-c2cc3c(=O)n([C@@H](C)CO)cnc3c(-c3cccnc3)n2)s1 [Compound 67]"
  pIC50: "> 7.00"
- compound: "O=c1c2cc(-c3ccc(Cl)cc3)nc(-c3cccnc3)c2ncn1C1COCC1O (racemic) [Compound 29]"
  pIC50: "> 7.00"
- compound: "CC(C)(O)Cn1cnc2c(-c3cccnc3)nc(-c3ccc(C(F)(F)F)nc3)cc2c1=O [Compound 9]"
  pIC50: "> 7.00"
- compound: "O=c1c2cc(-c3cccnc3)nc(-c3cccnc3)c2ncn1CC(O)C(F)(F)F (stereo not shown) [Compound 10]"
  pIC50: "6.30 to 7.00"
- compound: "Cn1cc(-c2nc(-c3ccc(C(F)(F)F)cn3)cc3c(=O)n([C@H]4COC[C@H]4O)cnc23)cn1 [Compound 151]"
  pIC50: "> 7.00"
- compound: "O=c1c2cc(-c3ccc(C(F)(F)F)nc3)nc(-c3cccnc3)c2ncn1C[C@H](O)C(F)(F)F [Compound 57]"
  pIC50: "> 7.00"
